Assay Comment: qHTS for identification of novel therapeutic agents for treatment of microphthalmiaassociated transcription factor (MiT) renal cell carcinoma (RCC) (AID 1963991);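 note: curves scaled with 100% = DMSO viability and 0% = empty wells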
Particulars: TFE3-RCC UOK109 viability, CellTiter-Glo, 48 h; measured here: UOK109 Z-AUC; stronger effect = lower value
Inconclusive results are not listed.
Reported Endpoint: z-score

What the record says about `O=C(C1CC1)N1CC[C@@H](Cn2c(-c3ccc(-c4ccc5occc5c4)cc3)nc3cnccc32)C1` : z-score is 0.57

What the record says about CCN(CC)CCCC(C)Nc1nc(C)cc(Nc2ccc3nc(C)cc(N)c3c2)n1 (stereo unspecified) : z-score is 0.273

What the record says about `NC(=O)c1cnccn1` : z-score is 0.906

What the record says about `OCCn1cc(-c2cnc3nnn(Cc4ccc5ncccc5c4)c3n2)cn1` : z-score is 0.421

What the record says about `Clc1cccc(Cl)c1NC1=NCCN1` : z-score is 0.351

What the record says about `O=C(C=Cc1ccc(/C=C/C(=O)Nc2ccc(C3=NCCN3)cc2)cc1)Nc1ccc(C2=NCCN2)cc1` : z-score is 0.251

What the record says about `Oc1cccc(-c2nc(N3CCOCC3)c3oc4ncccc4c3n2)c1` : z-score is -1.31

What the record says about `CCOc1ccc(Cc2cc([C@@H]3O[C@H](CO)[C@@H](O)[C@H](O)[C@@H]3O)ccc2Cl)cc1` : z-score is 0.362

What the record says about `O=C(O)CCc1ccc(NCc2cccc(Oc3ccccc3)c2)cc1` : z-score is 0.226

What the record says about `NC[C@H](O)c1ccc(O)c(O)c1` : z-score is 0.441

What the record says about OC(CN1CCC(Cc2ccc(F)cc2)CC1)c1ccc(Cl)cc1 (stereo unspecified) : z-score is 0.0108

What the record says about CC(c1cc2ccccc2s1)N(O)C(N)=O (stereo unspecified) : z-score is 0.403

What the record says about `COc1ccccc1-c1cccc(-c2c(O)c3cc(C#N)c(Cl)cc3[nH]c2=O)c1` : z-score is 1.05

What the record says about `O=C1CCc2cc(OCCCCc3nnnn3C3CCCCC3)ccc2N1` : z-score is 0.489

What the record says about NC(=O)C1CCCc2c1[nH]c1ccc(Cl)cc21 (stereo unspecified) : z-score is 0.0433

What the record says about `CC(C)(C)OC(=O)CN(Cc1ccc(Cl)cc1)Cc1ccc([N+](=O)[O-])s1` : z-score is 0.406

---

Assay Comment: Quantitative High-Throughput drug screen in 47 multiple myeloma cell lines against the NCATS MIPE library collection: ARD_JJKsccE7 cell viability assay (AID 1918929;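 for viability: 100% = DMSO-only wells and 0% = media-only wells without cells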)
Particulars: ARD myeloma cell line viability, CellTiter-Glo, 48 h; series mostly up to 45.8 µM
Records with an inconclusive call do not appear. Calls of active or inactive are those of the source. The call rests on the fitted dose curve; in most records, active means well fitted cell-killing curve with a large enough effect; inconclusive means small, poorly fitted or top-dose-only effect, or effect the other way; inactive means no such curve, though single readings can be large or run the other way.
Can you answer with just one of these options? 1 = active, 0 = inactive

Look up the recorded call for `CCc1cc(Nc2nccc(-c3c(-c4ccc(OC)c(C(=O)Nc5c(F)cccc5F)c4)nc4ccccn34)n2)c(OC)cc1N1CCC(N2CCN(S(C)(=O)=O)CC2)CC1` in this test. 1

Look up the recorded call for `NNCCc1ccccc1` in this test. 0

Look up the recorded call for `CCN(c1ccccc1)c1cc(NC)[n+](C)c(C)n1` in this test. 1

Look up the recorded call for `O=C(Nc1nc2ccccc2n1CCN1CCOCC1)c1cccc([N+](=O)[O-])c1` in this test. 1

---

Assay Comment: qHTS profiling for inhibitors of Plasmodium falciparum (3D7) proliferation (AID 743322);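 note: infected erythrocytes exposed to compound for 72 h before lysis; 100% = DMSO vehicle wells and 0% = 0.29 µM artemisinin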
Particulars: P. falciparum 3D7 proliferation; at 28.7 µM (top of the series) unless noted
For each record, write down the corresponding remaining parasite growth % (stronger effect = lower value).
The reply should contain only the number, in %.

What the record says about `C[C@@H]1CN(Cc2ccc(F)cc2)[C@@H](C)CN1C(=O)c1cc2c(C(=O)C(=O)N(C)C)cn(C)c2cc1Cl` : remaining parasite growth % (stronger effect = lower value) is 69.2

What the record says about `CC1(C)CNc2cc(NC(=O)c3cccnc3NCc3ccncc3)ccc21` : remaining parasite growth % (stronger effect = lower value) is 70.1

---

Assay Comment: qHTS assay for measurement of the activity of small molecule inhibitors on Zika virus induced Caspase-3 activity in human iPSC derived neural progenitor cells (hNPCs) (AID 1224857); note: nearly all actives have a fitted effect of over 65% in size
Particulars: hNPCs ZIKV-induced caspase-3/7, Caspase-Glo luminescence, 6 h; series mostly up to 45.7 µM
Records with an inconclusive call do not appear. Calls of active or inactive are those of the source. The call rests on the fitted dose curve; in most records, active means well fitted inhibition curve with a large enough effect; inconclusive means small, poorly fitted or top-dose-only effect; inactive means no such curve, though single readings can be large or run the other way.
Can you answer with just one of these options? t (active), f (inactive)

Look up the recorded call for `CS(=O)(=O)c1cccc(CNc2nc(Nc3ccc4c(c3)CCC(=O)N4)ncc2C(F)(F)F)c1` in this test. f

Look up the recorded call for CC(C[N+](C)(C)C)OC(N)=O (stereo not drawn) in this test. f

Look up the recorded call for COc1ccc(CC2=NN3C([C@@H](CCc4ccccc4)[C@@H](C)O)=NC(C)C3C(=O)N2)cc1OC (stereo partly drawn) in this test. t

Look up the recorded call for `COc1cc(F)c(F)c(Nc2ccc(I)cc2F)c1NS(=O)(=O)C1(C[C@H](O)CO)CC1` in this test. f

Look up the recorded call for `Clc1ccc(Nc2nnc(Cc3ccncc3)c3ccccc23)cc1` in this test. f

Look up the recorded call for O=C1CCC(N2C(=O)c3ccccc3C2=O)C(=O)N1 (stereo not drawn) in this test. f

Look up the recorded call for `CC(C)OC(=O)C1=CN(C(=O)c2ccc(F)c(F)c2)CC(C)(C)c2c1[nH]c1ccccc21` in this test. f

Look up the recorded call for `Cc1c(CCOc2ccc(C(=O)O)cc2)c2cc(Cl)ccc2n1C(c1ccccc1)c1ccccc1` in this test. f

Look up the recorded call for `COCC(=O)NCC=Cc1ccc2ncnc(Nc3ccc(Oc4ccc(C)nc4)c(C)c3)c2c1` in this test. f

Look up the recorded call for CCN(CC)CCCC(C)Nc1nc(C)cc(Nc2ccc3nc(C)cc(N)c3c2)n1 (stereo not drawn) in this test. f

Look up the recorded call for CCC(C)N(C)C(=O)c1cc2ccccc2c(-c2ccccc2Cl)n1 (stereo not drawn) in this test. f

Look up the recorded call for Cc1ccccc1C(C(=O)NC1CCCC1)N(C(=O)Cn1cnc2ccccc21)c1cccc(F)c1 (stereo not drawn) in this test. f

Look up the recorded call for `Clc1cccc(Cl)c1NC1=NCCN1` in this test. f

Look up the recorded call for CCc1ccc(CCOc2ccc(CC3SC(=O)NC3=O)cc2)nc1 (stereo not drawn) in this test. f

Look up the recorded call for `COc1ccc(C2=N[C@H](c3ccc(Cl)cc3)[C@H](c3ccc(Cl)cc3)N2C(=O)N2CCNC(=O)C2)c(OC(C)C)c1` in this test. f

Look up the recorded call for `C#Cc1cccc(Nc2ncnc3cc(OCCOC)c(OCCOC)cc23)c1` in this test. f

Look up the recorded call for `CCOc1cc(C=C2C(=O)N(c3ccccc3)N=C2C)cc(Cl)c1OCC(=O)OC` in this test. f

Look up the recorded call for `O=C(C=Cc1ccc(/C=C/C(=O)Nc2ccc(C3=NCCN3)cc2)cc1)Nc1ccc(C2=NCCN2)cc1` in this test. f

---

Assay Comment: Identifying Small Molecule Inhibitors of Pancreatic Cancer Stem Cells (A2780, Spheroid) (AID 1259357); note: potency is the fitted concentration of half-maximal effect;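 note: spheroids pre-formed over 14 days in stem cell medium on hydrogel; compound exposure lasted 48 h before the ATP luminescence read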
Particulars: A2780 spheroid viability; series mostly up to 46.1 µM
Records with an inconclusive call do not appear. Calls of active or inactive are those of the source. The call rests on the fitted dose curve; in most records, active means well fitted cell-killing curve with a large enough effect; inconclusive means small, poorly fitted or top-dose-only effect, or effect the other way, or another doubt; inactive means no such curve, though single readings can be large or run the other way.
Reported Endpoint: Potency

Answered examples (4):
What the record says about CCC(C)n1ncn(-c2ccc(N3CCN(c4ccc(OC[C@H]5CO[C@](Cn6cncn6)(c6ccc(Cl)cc6Cl)O5)cc4)CC3)cc2)c1=O (stereo not given in full) : Potency is 4.69 µM (active)

What the record says about `CCCCCCCc1ccc(CCc2cccc(O)c2C(=O)O)cc1` : Potency is inactive

What the record says about O=C1CCCC2=C1C(c1[nH]ncc1Cl)N=C(Nc1nc3ccccc3o1)N2 (stereo not given) : Potency is inactive

What the record says about `Cc1n[nH]c(C)c1Cc1sc2c(c1C(=O)N1C[C@H](O)CO1)c(=O)n(C)c(=O)n2CC(C)C` : Potency is inactive

Continuing:
What the record says about `O=C(C1CC1)N1CC[C@@H](Cn2c(-c3ccc(-c4ccc5occc5c4)cc3)nc3cnccc32)C1` : Potency is 0.469 µM (active)

---

Assay Comment: qHTS drug screen for cell cycle checkpoint inhibitors in PARPi-resistant BRCA-mutant ovarian cancer cell lines. (AID 1963452)
Particulars: PEO1/OlaR viability, CellTiter-Glo luminescence, 96 h; stronger effect = lower value
For each record, write down the corresponding Z-AUC.
Lab note: jot the number down without any unit.

What the record says about Cc1c(C)c2c(c(C)c1O)CCC(C)(COc1ccc(CC3SC(=O)NC3=O)cc1)O2 (centres undefined) : Z-AUC is 0.635

What the record says about `CNC(=O)c1ccc(N2C(=S)N(c3ccc(C#N)c(C(F)(F)F)c3)C(=O)C2(C)C)cc1F` : Z-AUC is 0.0364

What the record says about COc1ccc(COc2cc3oc(=O)c4cc(C(C)O)ccc4c3cc2OC)cc1 (centres undefined) : Z-AUC is 1.06

What the record says about `COc1cc2nccc(Oc3ccc(NC(=O)NC4CC4)c(Cl)c3)c2cc1C(N)=O` : Z-AUC is -1.2
